test-target: GPR84 (Homo sapiens)
test-summary: Detection of cytoplasmic calcium ion concentration with Fluo-4 fluorescent dye tracer assay (GPR84 agonist activity)
Type: cell-based
Design: expressed in transfected cells; host or cells: HEK293
test-conditions: HEK293 cell line transfected with GPR84 and G16; Fluo-4 calcium fluorescence
measured-metric: EC50 (nM)

For CCCCCCCCCc1cc(O)cc(O)c1 [LY236] on GPR84 (Homo sapiens), measured EC50 was 435

P = Oc1cc(O)nc(SCC2CCC2)n1 [LY212]
Q = CCCCCc1nc(O)cc(O)n1 [LY182]
R = CCCCCSc1nc(O)cc(O)n1 [LY214-5]
S = CCCCCCCSc1nc(O)cc(O)n1 [LY242-7]
T = CCCCCCCCc1cc(O)cc(O)n1 [LY223]
Ordering: ascending EC50. # format: label list in the order the request specifies
T, S, R, Q, P
(T: 1.34 nM, S: 231 nM, R: 2480 nM, Q: 3670 nM, P: 43400 nM)

====

test-target: GPR84 (Homo sapiens, UniProt Q9NQS5)
Sequence (Q9NQS5 whole entry): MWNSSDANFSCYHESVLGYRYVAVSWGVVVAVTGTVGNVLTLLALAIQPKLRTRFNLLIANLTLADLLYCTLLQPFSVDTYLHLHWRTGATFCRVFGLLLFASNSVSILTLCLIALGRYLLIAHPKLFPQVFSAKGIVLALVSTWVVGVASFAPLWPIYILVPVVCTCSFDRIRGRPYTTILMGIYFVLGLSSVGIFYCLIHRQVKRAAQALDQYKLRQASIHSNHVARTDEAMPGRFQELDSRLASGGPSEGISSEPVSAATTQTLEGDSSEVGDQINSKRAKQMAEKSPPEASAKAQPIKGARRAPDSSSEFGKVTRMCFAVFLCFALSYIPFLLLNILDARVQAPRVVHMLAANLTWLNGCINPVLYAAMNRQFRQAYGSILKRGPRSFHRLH
test-summary: Detection of cytoplasmic calcium ion concentration with Fluo-4 fluorescent dye tracer assay (GPR84 agonist activity)
Assay type: cell-based
Design: expressed in transfected cells; host or cells: HEK293
test-conditions: HEK293 cell line transfected with GPR84 and G16; Fluo-4 calcium fluorescence
Procedure: Detection of Cytoplasmic Calcium Ion Concentration with Fluo-4 Fluorescent Dye Tracer Assay The GPR84 agonist activity of the compounds of the invention was tested. […] Intracellular Ca^2+ ion is a very important second messenger of G protein-coupled receptor signaling pathway. […] Fluo-4 is a Ca^2+ ion-specific fluorescent probe that binds quantitatively to Ca^2+ ions and emits fluorescence. […] The changes in the intracellular calcium concentration were detected by the fluorescence intensity of dyes. […]
measured-metric: EC50 (µM)

Sample records with EC50:
For CCCCCCCCCCCCCCSc1nc(O)cc(O)n1 [LY340-14] on GPR84 (Homo sapiens, UniProt Q9NQS5), measured EC50 was 25.7

For CCCCCCCCNc1nc(O)cc(O)n1 [LY239] on GPR84 (Homo sapiens, UniProt Q9NQS5), measured EC50 was 0.00614

1 = CCCCCCCCc1cc(=O)[nH]c(=O)[nH]1 [LY224-c]
2 = CCCCCCCc1cc(O)cc(O)n1 [LY209]
3 = CCCCc1ccc(-c2cc(O)cc(O)n2)cc1 [LY243]
4 = CCCCCCCC(C)c1nc(O)cc(O)n1 (stereo not drawn) [LY238-c]
Ordering: ascending EC50. # format: label list in the order the request specifies
2, 3, 4, 1

====

test-target: GPR84 (Homo sapiens)
test-summary: Detection of cytoplasmic calcium ion concentration with Fluo-4 fluorescent dye tracer assay (GPR84 agonist activity)
Assay type: cell-based
Parameters: expressed in transfected cells; host or cells: HEK293
test-conditions: HEK293 cell line transfected with GPR84 and G16; Fluo-4 calcium fluorescence
measured-metric: EC50 (nM)

1 = Oc1cc(O)nc(SCCc2ccccc2)n1
2 = Oc1cc(O)nc(SCCc2ccccc2F)n1
Pick one: 1 or 2 . Which one has the lower reported EC50? Record your answer as the label of the chosen record.
2
(2: 1990 nM, 1: 3860 nM)

A = Oc1cc(O)nc(SCCc2cccc(F)c2)n1
B = CCc1ccc(CSc2nc(O)cc(O)n2)cc1
C = CCCCCCCCCCCCSc1nc(O)cc(O)n1
Ordering: ascending EC50. # format: label list in the order the request specifies
B, C, A

P = CC(C)CCCc1nc(O)cc(O)n1 [LY196b]
Q = CCCCCCCc1nc(O)cc(O)n1
R = CC(C)CCCSc1nc(O)cc(O)n1
S = CCCCCCCCc1cc(=O)[nH]c(=S)[nH]1
T = CCc1ccc(CCc2nc(O)cc(O)n2)cc1
Ordering: ascending EC50. # format: label list in the order the request specifies
Q, T, S, R, P
(Q: 12.7 nM, T: 88.1 nM, S: 340 nM, R: 641 nM, P: 2100 nM)
